Reported melting point values for the following molecules.

Record excerpt, results attached:
| molecule | observed |
| --- | --- |
| CCCCCC(C)C(C)c1cc(O)c2c(c1)OC(C)(C)C1=C2CN(CC(=O)NC(=O)NC)CC1 (centres undefined) | 145 to 147 °C |
| CC(=O)CS(=O)(=O)c1cccc2ccccc12 | 65 °C |
| NC(=O)c1cc(N)c(Oc2ccccc2)c(S(N)(=O)=O)c1 | 291 to 292 °C |
| C[C@@H]1C[C@](C)(O)[C@H](C)N1c1ccc(C#N)c(C(F)(F)F)c1 | 115 to 117 °C |
| CCOC(=O)CN1CCN(C2=Nc3ccccc3Cc3ccccc32)CC1 | 107 to 108 °C |

### Prompt Please report the recorded melting point for `Cn1cc(CN2CCC[C@H]2CO)c2ccccc21` .
### Response 46 to 48 °C

### Prompt Please report the recorded melting point for `NC(=O)c1[nH]cnc1OC(=O)C=Cc1ccc(C=O)cc1` .
### Response 233 °C

### Prompt Please report the recorded melting point for `CCOC(=O)COc1ccc(N2CCN(C(=O)OC(C)(C)C)CC2)cc1C=O` .
### Response 93 to 94 °C

### Prompt Please report the recorded melting point for `CCCN(Cc1ccc(-c2ccccc2-c2nnnn2C(c2ccccc2)(c2ccccc2)c2ccccc2)cc1)c1ncncc1C(=O)OCC` .
### Response 100 to 103 °C

### Prompt Please report the recorded melting point for `CC(C)(C)OC(=O)N(CCCn1ncc2cc(C(=O)O)ccc21)c1ccccn1` .
### Response 129 to 131 °C

### Prompt Please report the recorded melting point for `CC(C)c1ccc2ncc(C(=O)O)c(O)c2c1` .
### Response 298 °C

### Prompt Please report the recorded melting point for `CC(C)CNC(=O)COc1ccn2nc(-c3ccccc3)c(-c3ccc(=O)n(C(C)C)n3)c2c1` .
### Response 168 °C

### Prompt Please report the recorded melting point for `O=C1OC(c2cccc(C(F)(F)F)c2)=NC1=Cc1cccs1` .
### Response 200 to 202 °C

### Prompt Please report the recorded melting point for `NC(=O)[C@H]1CN(c2ccc(C3=CCOCC3)c(F)c2)C(=O)O1` .
### Response 164 to 169 °C

### Prompt Please report the recorded melting point for `CN1C(=O)CSc2c(NCc3cccc(OCc4ccc5ccccc5n4)c3)cccc21` .
### Response 102 to 104 °C

### Prompt Please report the recorded melting point for `Cc1c(O)ccc(C=O)c1O` .
### Response 150 °C

### Prompt Please report the recorded melting point for `O=C(Nc1nc(-c2ccc(OC(F)F)cc2)cs1)C1CC1` .
### Response 202 to 203 °C

### Prompt Please report the recorded melting point for O=C1C(CCS(=O)c2ccccc2)C(=O)N(c2ccccc2)N1c1ccccc1 (centres undefined) .
### Response 130 to 132 °C

### Prompt Please report the recorded melting point for `CCOCCNS(=O)(=O)NC(=O)OCc1ccc(OCCOC)cc1Oc1ncc(C(F)(F)F)cc1Cl` .
### Response 142 to 143 °C

* * *

Reported melting point values for the following compounds.

Record excerpt, results attached:
| compound | recordedEndpoint | observed |
| --- | --- | --- |
| CCOC(=O)NC(=S)Nc1ccc(C(=O)OC(C)(C)C)cc1 | melting point | 119 to 120 °C |
| CON=C(C#N)c1ccccc1COc1cccc(Cl)c1 | melting point | 62 to 63 °C |
| CC1(C)NC(SCc2ccccc2N)=NC1=S | melting point | 103 to 104 °C |
| O=c1c2ccccc2sc2ccc(SC(F)(F)F)cc12 | melting point | 126 to 127 °C |
| O=c1c2cnc3cc4c(cc3c2sn1CCc1ccccn1)OCO4 | melting point | 200 to 201 °C |
| Cn1cc(CN2CCN(CCOc3ccc(C=C4SC(=O)NC4=O)cc3)CC2)c2ccccc21 | melting point | 183 to 188 °C |
| O=C1C=C(c2cccn2Cc2ccccc2)C(=O)c2ccccc21 | melting point | 99 °C |
| CCOCCC(=O)OCC(=O)C1(O)CCC2C3CC(C)C4=CC(=O)C=CC4(C)C3C(O)CC21C (stereo not given) | melting point | 186 °C |

### Prompt Please report the recorded melting point for CCCCCCCCNCC(O)COc1ccc(SC)cc1C (stereo not given) .
### Response 59 to 60 °C

### Prompt Please report the recorded melting point for `COc1ccc(-n2nc(C#N)cc2-c2ccc(S(C)(=O)=O)cc2)cc1Br` .
### Response 184 to 186 °C

### Prompt Please report the recorded melting point for CC(=O)OC(C)OC(=O)N1c2ccccc2Sc2cc(O)c3ccccc3c21 (stereo not given) .
### Response 102 to 112 °C

### Prompt Please report the recorded melting point for CCc1ccc(CC2N=C(c3ccc(F)cc3)c3cc(Cl)ccc3N(C)C2=O)cc1CC (stereo not given) .
### Response 54 to 56 °C

### Prompt Please report the recorded melting point for CC(C)(C)C(OC(=O)Cl)C(Oc1ccc(Cl)cc1)N1CN=CN1 (stereo not given) .
### Response 75 to 80 °C

* * *

recordedEndpoint: melting point

Record excerpt, results attached:
| querySmiles | melting point |
| --- | --- |
| CCC(CC)(C(N)=O)c1ccc(Cl)cc1 | 107 to 109 °C |
| O=C(Nc1ccc(F)cc1)c1ccccc1SSc1ccccc1C(=O)Nc1ccc(F)cc1 | 242 to 244 °C |

Please examine the following record next.
### Prompt Please report the recorded melting point for `O=C(c1cc(N2CCCC(F)(F)C2)ccn1)N(O)Cc1ccccc1` .
### Response 140 to 145 °C

* * *

Reported melting point values for the following compounds.

Record excerpt, results attached:
| compound | melting point |
| --- | --- |
| COC(=O)[C@H]1[C@H](c2ccc3c(c2)OCO3)c2ccc(O)cc2[C@@H]1c1ccc(OC)cc1 (racemic) | 187 to 188 °C |
| CC1OCC(C)n2c1nc1c(N)nc3ccccc3c12 (stereo not given) | 218 to 223 °C |
| CCSc1snc(OCOCC#CI)c1C#N | 57 to 58 °C |
| N#CCCCOc1cccc(OCc2ccc3ccccc3n2)c1 | 84 to 85 °C |
| Cc1cccc(NC(=O)N2CCN(CCc3ccc(-c4cccc(N)n4)cc3)CC2)c1 | 88 to 94 °C |
| CS(=O)(=O)NCCCCCC1CCSS1 (stereo not given) | 43 to 46 °C |
| COC(=O)C1=Cc2cc(-c3ccc(C(F)(F)F)cc3)ccc2S(=O)(=O)CC1 | 168 to 170 °C |
| O=C(O)c1cccc(-c2ccc3c(c2)C(Oc2cccc(C(F)(F)F)c2)CC3)c1 (stereo not given) | 175 to 185 °C |

### Prompt Please report the recorded melting point for `Cc1cc(CO)ccc1NC(=O)N1CCN(c2ccc(NC(=O)Nc3ccccc3F)cc2)CC1` .
### Response 229 to 230 °C

### Prompt Please report the recorded melting point for O=C1Nc2ccccc2C12COc1cc3nccnc3cc12 (stereo not given) .
### Response 206 to 207 °C

### Prompt Please report the recorded melting point for `O=S1(=O)CS(=O)(=O)OCO1` .
### Response 146 °C

### Prompt Please report the recorded melting point for `O=C(O)c1ccc(C(=O)/C=C/c2ccc(N3CCCC3)c(-c3cccs3)c2)cc1` .
### Response 212 to 214 °C

### Prompt Please report the recorded melting point for `COc1ccccc1NC(=O)c1ccc([N+](=O)[O-])cc1` .
### Response 146 to 147 °C

### Prompt Please report the recorded melting point for `COc1c(Cl)ccc(-c2nc(C(=O)OCc3ccc(Cl)cc3)c(Cl)c(N)c2F)c1F` .
### Response 143 °C

### Prompt Please report the recorded melting point for `Cn1ncnc1COc1nc2c(cc1-c1cccc(F)c1)nnn2-c1c(F)cccc1F` .
### Response 137 to 140 °C

### Prompt Please report the recorded melting point for NC(Cc1cccc2ccccc12)(C(=O)O)C1CC(C(=O)O)C1 (stereo not given) .
### Response 189 to 191 °C

### Prompt Please report the recorded melting point for `COc1cc2c(cc1OC)CN(CCCOc1ccc(NC(=O)c3nccc4ccccc34)cc1)CC2` .
### Response 160 °C

### Prompt Please report the recorded melting point for `CSC1=C(c2ccc(O)cc2)C(=O)c2ccc(O)cc21` .
### Response 108 to 110 °C

### Prompt Please report the recorded melting point for `CCCCOC(=O)n1nc(-c2cccc(Br)c2)ccc1=O` .
### Response 126 to 129 °C

### Prompt Please report the recorded melting point for `Cc1cccc(NC(=O)NCC(=O)N(CC(=O)N2CCc3ccccc3C2)c2ccccc2)c1` .
### Response 135 °C

### Prompt Please report the recorded melting point for CC1=NOC(c2c(S(C)(=O)=O)ccc(C(=O)O)c2Cl)C1 (stereo not given) .
### Response 175 °C

### Prompt Please report the recorded melting point for `Cc1ccc(S(=O)(=O)NC(=O)OCCc2ccc(-n3c(CCC(=O)N4CCCC4)nc4cc(C(F)(F)F)c(Cl)cc43)cc2)cc1` .
### Response 98 to 105 °C

### Prompt Please report the recorded melting point for `COc1ccc(-n2nc(C(F)(F)F)cc2-c2ccc(S(C)(=O)=O)cc2)cc1Br` .
### Response 164 to 166 °C

### Prompt Please report the recorded melting point for CC(C)C(F)(C(=O)O)c1ccc(Cl)cc1 (stereo not given) .
### Response 120 °C

### Prompt Please report the recorded melting point for `CCN1CCc2ccc(Nc3ncc(Cl)c(Nc4ccccc4S(=O)(=O)NC)n3)cc2CC1` .
### Response 175 °C

Where do these numbers come from? They come from a melting point compilation (Tetko et al.; mined from patent text by program, amines drawn as free bases though some values may be those of a salt).
